Provide the reported inhibition at 0.1 µM of each item.
# SYSTEM: RSK1 (Homo sapiens)
# Construct: purchased Carna Biosciences
# Sequence (Q15418 whole entry): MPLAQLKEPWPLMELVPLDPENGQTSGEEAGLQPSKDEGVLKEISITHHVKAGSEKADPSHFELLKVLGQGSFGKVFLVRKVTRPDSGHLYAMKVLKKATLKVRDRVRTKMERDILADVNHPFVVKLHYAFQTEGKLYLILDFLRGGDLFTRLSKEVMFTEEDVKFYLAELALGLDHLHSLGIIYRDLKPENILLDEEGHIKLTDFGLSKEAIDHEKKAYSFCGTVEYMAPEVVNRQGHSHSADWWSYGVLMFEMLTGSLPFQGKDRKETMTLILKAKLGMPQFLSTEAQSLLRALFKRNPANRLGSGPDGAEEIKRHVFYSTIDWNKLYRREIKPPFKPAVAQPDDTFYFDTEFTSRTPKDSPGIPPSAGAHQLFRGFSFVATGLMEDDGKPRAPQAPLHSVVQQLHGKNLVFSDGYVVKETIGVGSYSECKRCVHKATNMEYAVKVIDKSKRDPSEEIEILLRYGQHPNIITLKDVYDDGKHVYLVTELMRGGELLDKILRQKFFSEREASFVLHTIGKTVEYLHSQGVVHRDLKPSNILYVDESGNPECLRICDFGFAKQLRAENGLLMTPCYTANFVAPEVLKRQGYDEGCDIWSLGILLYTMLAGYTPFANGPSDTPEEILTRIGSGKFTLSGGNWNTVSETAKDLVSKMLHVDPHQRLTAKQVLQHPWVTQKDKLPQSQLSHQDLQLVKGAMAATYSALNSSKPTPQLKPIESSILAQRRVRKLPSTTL
# ASSAY_SUMMARY: LabChip (Caliper) kinase assay, RSK1
# Format: biochemical
# APPLIED_CONDITIONS: compound at 100 nM, read-out: remaining kinase activity (in %) / percentage of inhibition
Hi! Could you send only the number? It should be in %, unit omitted.

stdin: Which value of inhibition at 0.1 µM has been reported for `C[C@@H]1O[C@@H](n2c3ccccc3c3c4c(c5c6ccccc6[nH]c5c32)C(=O)NC4=O)[C@H](O)[C@H](O)[C@H]1O` in the records?
stdout: 20

stdin: Which value of inhibition at 0.1 µM has been reported for C[C@@H]1O[C@@H](n2c3ccccc3c3c4c(c5c6ccccc6[nH]c5c32)CNC4=O)C[C@@H](O)[C@H]1O [formula (XIV), N^13-1′-β-L-digitoxosyl-k252c] in the records?
stdout: 22

stdin: Which value of inhibition at 0.1 µM has been reported for `C[C@H]1O[C@@H](n2c3ccccc3c3c4c(c5c6ccccc6[nH]c5c32)C(=O)NC4=O)C[C@@H](O)[C@@H]1O` in the records?
stdout: 74

stdin: Which value of inhibition at 0.1 µM has been reported for `C[C@@H]1O[C@@H](n2c3ccccc3c3c4c(c5c6ccccc6[nH]c5c32)C(=O)NC4=O)C[C@@H](O)[C@H]1O` in the records?
stdout: 77

stdin: Which value of inhibition at 0.1 µM has been reported for C[C@H]1O[C@@H](n2c3ccccc3c3c4c(c5c6ccccc6[nH]c5c32)CNC4=O)C[C@@H](O)[C@@H]1O [formula (XV), N^13-1′-β-D-olivosyl-k252c] in the records?
stdout: 31
